Data provenance: ChEMBL document CHEMBL4765459

target: 3',5'-cyclic-AMP phosphodiesterase 4B (Homo sapiens); experiment: Inhibition of human U-937 cells derived PDE4B using [3H] cAMP as substrate measured after 30 mins
Sequence (Q07343 whole entry): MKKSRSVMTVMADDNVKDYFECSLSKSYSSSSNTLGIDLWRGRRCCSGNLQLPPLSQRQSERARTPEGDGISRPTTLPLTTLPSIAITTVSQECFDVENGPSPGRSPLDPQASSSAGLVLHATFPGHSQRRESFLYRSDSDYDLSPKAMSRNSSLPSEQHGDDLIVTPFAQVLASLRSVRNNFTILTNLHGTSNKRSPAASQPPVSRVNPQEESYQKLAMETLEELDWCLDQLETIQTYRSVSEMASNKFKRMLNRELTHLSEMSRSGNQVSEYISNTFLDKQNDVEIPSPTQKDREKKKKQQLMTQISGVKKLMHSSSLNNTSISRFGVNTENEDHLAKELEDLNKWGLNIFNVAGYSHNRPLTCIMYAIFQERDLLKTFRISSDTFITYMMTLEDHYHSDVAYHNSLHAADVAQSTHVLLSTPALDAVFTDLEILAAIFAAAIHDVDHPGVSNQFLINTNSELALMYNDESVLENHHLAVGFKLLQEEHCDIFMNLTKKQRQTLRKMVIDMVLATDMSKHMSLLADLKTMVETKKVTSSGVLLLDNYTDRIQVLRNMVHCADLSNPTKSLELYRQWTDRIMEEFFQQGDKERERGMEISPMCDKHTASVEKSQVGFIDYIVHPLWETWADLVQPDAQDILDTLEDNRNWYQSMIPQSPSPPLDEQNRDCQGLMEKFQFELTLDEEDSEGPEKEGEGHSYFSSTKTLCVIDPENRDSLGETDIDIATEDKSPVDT
observable: IC50 (µM)

>  <smiles entry>
N#C/N=C1/SCCN1Cc1ccc(-c2cccc(F)c2)o1

>  <IC50 / µM>
59.7

$$$$

1 = Cc1ccc(-c2ccc(CN3CCS/C3=N/C#N)o2)cc1
2 = N#C/N=C1/SCCN1C(=O)c1coc(-c2ccccc2Cl)n1
Larger number for IC50: 1 , or 2 ? Respond using the label that marks the chosen record. 2
(2: 40.3 µM, 1: 20.1 µM)

###

organism: Homo sapiens; assay: Selectivity ratio of IC50 for inhibition of human U937 cells derived PDE4D to inhibition of human U937 cells derived PDE4B
observable: Ratio IC50

>  <smiles entry>
Cc1ccc(-c2ccc(C(=O)N3CCS/C3=N/C#N)o2)cc1

>  <Ratio IC50>
4.34

$$$$
>  <smiles entry>
N#C/N=C1/SCCN1C(=O)c1ccc(-c2cccc(Cl)c2)o1

>  <Ratio IC50>
3.39

$$$$

I = N#C/N=C1/SCCN1C(=O)c1ccc(-c2ccc(Cl)cc2)o1
II = Cc1ccc(-c2ccc(CN3CCS/C3=N/C#N)o2)cc1
III = COc1ccc(-c2nc(C(=O)N3CCS/C3=N/C#N)co2)cc1
// smallest Ratio IC50 at index 0, largest at the end Provide the labels, sequenced as the question asks. I, II, III
(I: 4, II: 6.04, III: 11.2)
